tested on: NCI-H460; assay: relative viability (nuclei count vs DMSO), 5 days (fraction); higher = more cells survive; conditions: first compound 0.02 µM
measuredParameter: relative viability
Answer as a number with no unit attached.

Please review the entries below; each comes with its answer.
INSERT INTO assay_data (molecule, measuredparameter, recordedvalue) VALUES
  ('CN1CCN(CCOc2cc(OC3CCOCC3)c3c(Nc4c(Cl)ccc5c4OCO5)ncnc3c2)CC1 [Saracatinib] + C[C@@H](Oc1cc(-c2cnn(C3CCNCC3)c2)cnc1N)c1c(Cl)ccc(F)c1Cl [Crizotinib] (partner 1 µM)', 'relative viability', 0.97),
  ('CN1CCN(CCOc2cc(OC3CCOCC3)c3c(Nc4c(Cl)ccc5c4OCO5)ncnc3c2)CC1 [Saracatinib] + Nc1ncn([C@H]2C[C@H](O)[C@@H](CO)O2)c(=O)n1 [Decitabine] (partner 2 µM)', 'relative viability', 0.457),
  ('CCNC(=O)c1noc(-c2cc(C(C)C)c(O)cc2O)c1-c1ccc(CN2CCOCC2)cc1 [Luminespib] + Nc1nc2[nH]cc(CCc3ccc(C(=O)N[C@@H](CCC(=O)O)C(=O)O)cc3)c2c(=O)[nH]1 [Pemetrexed] (partner 0.2 µM)', 'relative viability', 0.0687);

Prompt line: Dear colleague, I am looking for the recorded relative viability of the following molecule: CN1CCN(CCOc2cc(OC3CCOCC3)c3c(Nc4c(Cl)ccc5c4OCO5)ncnc3c2)CC1 [Saracatinib] + Nc1nc2[nH]cc(CCc3ccc(C(=O)N[C@@H](CCC(=O)O)C(=O)O)cc3)c2c(=O)[nH]1 [Pemetrexed] (partner 0.2 µM)
Response line: 0.0672

Prompt line: Consider next the molecule CCNC(=O)c1noc(-c2cc(C(C)C)c(O)cc2O)c1-c1ccc(CN2CCOCC2)cc1 [Luminespib] + CS(=O)(=O)N1CCN(Cc2cc3nc(-c4cccc5[nH]ncc45)nc(N4CCOCC4)c3s2)CC1 [Pictilisib] (partner 1 µM) in the same way.
Response line: 0.372

Prompt line: Consider next the molecule CCNC(=O)c1noc(-c2cc(C(C)C)c(O)cc2O)c1-c1ccc(CN2CCOCC2)cc1 [Luminespib] + COc1cc2c(Oc3ccc(NC(=O)C4(C(=O)Nc5ccc(F)cc5)CC4)cc3F)ccnc2cc1OCCCN1CCOCC1 [Foretinib] (partner 0.25 µM) in the same way.
Response line: 0.957

###

Listed below: relative viability values for each entry.
system: NCI-H2170; assay: relative viability (nuclei count vs DMSO), 5 days (fraction); higher = more cells survive; details: first compound 0.8 µM
Answer as a number with no unit attached.

Prompt line: Dear colleague, I am looking for the recorded relative viability of the following molecule: Nc1cccc2c1CN(C1CCC(=O)NC1=O)C2=O (configuration not stated) [Lenalidomide] + N=C(N)NC(=N)NCCc1ccccc1 [Phenformin] (partner 250 µM)
Response line: 0.425

###

Listed below: relative viability values for each entry.
tested on: NCI-H2085; assay: relative viability (nuclei count vs DMSO), 5 days (fraction); higher = more cells survive; conditions: first compound 0.8 µM
Answer as a number with no unit attached.

Prompt line: Dear colleague, I am looking for the recorded relative viability of the following compound: Nc1cccc2c1CN(C1CCC(=O)NC1=O)C2=O (stereo not drawn) [Lenalidomide] + CC(=O)Nc1cccc(-n2c(=O)n(C3CC3)c(=O)c3c(Nc4ccc(I)cc4F)n(C)c(=O)c(C)c32)c1 [Trametinib] (partner 0.02 µM)
Response line: 0.405

Prompt line: Consider next the compound Nc1cccc2c1CN(C1CCC(=O)NC1=O)C2=O (stereo not drawn) [Lenalidomide] + COc1cc2c(Oc3ccc(NC(=O)C4(C(=O)Nc5ccc(F)cc5)CC4)cc3F)ccnc2cc1OCCCN1CCOCC1 [Foretinib] (partner 0.25 µM) in the same way.
Response line: 1.11

Prompt line: Consider next the compound Nc1cccc2c1CN(C1CCC(=O)NC1=O)C2=O (stereo not drawn) [Lenalidomide] + CC(=O)c1c(C)c2cnc(Nc3ccc(N4CCNCC4)cn3)nc2n(C2CCCC2)c1=O [Palbociclib] (partner 0.5 µM) in the same way.
Response line: 0.496

###

test system: HCC-44; test: relative viability (nuclei count vs DMSO), 5 days (fraction); higher = more cells survive; settings: first compound 6.325 µM
// boundary case: relative viability equal to 0.5 maps to not satisfied; strictly smaller maps to satisfied

INSERT INTO assay_data (compound, assaytarget, labelvalue) VALUES
  ('Cc1csc(=NC2CCCCC2)n1/N=C/c1ccc(O)c(O)c1O [MIM1] + CC(=O)c1c(C)c2cnc(Nc3ccc(N4CCNCC4)cn3)nc2n(C2CCCC2)c1=O [Palbociclib] (partner 0.5 µM)', 'HCC-44', 'not satisfied'),
  ('Cc1csc(=NC2CCCCC2)n1/N=C/c1ccc(O)c(O)c1O [MIM1] + COc1cccc2cc(-c3nc([C@H]4CC[C@H](C(=O)O)CC4)n4ncnc(N)c34)[nH]c12 [OSI-027] (partner 0.5 µM)', 'HCC-44', 'satisfied'),
  ('Cc1csc(=NC2CCCCC2)n1/N=C/c1ccc(O)c(O)c1O [MIM1] + CS(=O)(=O)N1CCN(Cc2cc3nc(-c4cccc5[nH]ncc45)nc(N4CCOCC4)c3s2)CC1 [Pictilisib] (partner 1 µM)', 'HCC-44', 'satisfied');

Prompt line: Determine if Cc1csc(=NC2CCCCC2)n1/N=C/c1ccc(O)c(O)c1O [MIM1] + Cc1cc(Nc2cc(N3CCN(C)CC3)nc(Sc3ccc(NC(=O)C4CC4)cc3)n2)n[nH]1 [Tozasertib] (partner 0.1 µM) shows relative viability strictly lower than 0.5.
Response line: not satisfied

###

system: EPLC-272H; test: relative viability (nuclei count vs DMSO), 5 days (fraction); higher = more cells survive; details: first compound 0.02 µM
measuredParameter: relative viability
Answer as a number with no unit attached.

INSERT INTO measurements (compound, measuredparameter, recordedvalue) VALUES
  ('CCNC(=O)c1noc(-c2cc(C(C)C)c(O)cc2O)c1-c1ccc(CN2CCOCC2)cc1 [Luminespib] + Nc1nc2[nH]cc(CCc3ccc(C(=O)N[C@@H](CCC(=O)O)C(=O)O)cc3)c2c(=O)[nH]1 [Pemetrexed] (partner 0.2 µM)', 'relative viability', 0.335);

Prompt line: Dear colleague, I am looking for the recorded relative viability of the following compound: CN1CCN(CCOc2cc(OC3CCOCC3)c3c(Nc4c(Cl)ccc5c4OCO5)ncnc3c2)CC1 [Saracatinib] + Nc1nc2[nH]cc(CCc3ccc(C(=O)N[C@@H](CCC(=O)O)C(=O)O)cc3)c2c(=O)[nH]1 [Pemetrexed] (partner 0.2 µM)
Response line: 0.334

Prompt line: Consider next the compound CCNC(=O)c1noc(-c2cc(C(C)C)c(O)cc2O)c1-c1ccc(CN2CCOCC2)cc1 [Luminespib] + CS(=O)(=O)N1CCN(Cc2cc3nc(-c4cccc5[nH]ncc45)nc(N4CCOCC4)c3s2)CC1 [Pictilisib] (partner 1 µM) in the same way.
Response line: 0.254

Prompt line: Consider next the compound CN1CCN(CCOc2cc(OC3CCOCC3)c3c(Nc4c(Cl)ccc5c4OCO5)ncnc3c2)CC1 [Saracatinib] + C[C@]1(O)C[C@@H](c2nc(-c3ccc4ccc(-c5ccccc5)nc4c3)c3c(N)nccn32)C1 [Linsitinib] (partner 1 µM) in the same way.
Response line: 1.23

###

system: CAL-12T; assay: relative viability (nuclei count vs DMSO), 5 days (fraction); higher = more cells survive; details: first compound 0.06325 µM
measuredParameter: relative viability

Please review the entries below; each comes with its answer.
INSERT INTO measurements (molecule, recordedvalue) VALUES
  ('CCNC(=O)c1noc(-c2cc(C(C)C)c(O)cc2O)c1-c1ccc(CN2CCOCC2)cc1 [Luminespib] + Cc1nc(Nc2ncc(C(=O)Nc3c(C)cccc3Cl)s2)cc(N2CCN(CCO)CC2)n1 [Dasatinib] (partner 0.075 µM)', 0.0553),
  ('CCNC(=O)c1noc(-c2cc(C(C)C)c(O)cc2O)c1-c1ccc(CN2CCOCC2)cc1 [Luminespib] + CC(=O)Nc1cccc(-n2c(=O)n(C3CC3)c(=O)c3c(Nc4ccc(I)cc4F)n(C)c(=O)c(C)c32)c1 [Trametinib] (partner 0.02 µM)', 0.111),
  ('CCNC(=O)c1noc(-c2cc(C(C)C)c(O)cc2O)c1-c1ccc(CN2CCOCC2)cc1 [Luminespib] + NC(=O)Nc1cc(-c2cccc(F)c2)sc1C(=O)N[C@H]1CCCNC1 [AZD7762] (partner 0.2 µM)', 0.188);

Prompt line: Dear colleague, I am looking for the recorded relative viability of the following molecule: CCNC(=O)c1noc(-c2cc(C(C)C)c(O)cc2O)c1-c1ccc(CN2CCOCC2)cc1 [Luminespib] + Cc1nc(NC(=O)N2CCC[C@H]2C(N)=O)sc1-c1ccnc(C(C)(C)C(F)(F)F)c1 [Alpelisib] (partner 2 µM)
Response line: 0.192

Prompt line: Consider next the molecule CCNC(=O)c1noc(-c2cc(C(C)C)c(O)cc2O)c1-c1ccc(CN2CCOCC2)cc1 [Luminespib] + COc1cccc2cc(-c3nc([C@H]4CC[C@H](C(=O)O)CC4)n4ncnc(N)c34)[nH]c12 [OSI-027] (partner 0.5 µM) in the same way.
Response line: 0.0898

Prompt line: Consider next the molecule CCNC(=O)c1noc(-c2cc(C(C)C)c(O)cc2O)c1-c1ccc(CN2CCOCC2)cc1 [Luminespib] + O=C(c1cc(Cc2n[nH]c(=O)c3ccccc23)ccc1F)N1CCN(C(=O)C2CC2)CC1 [Olaparib] (partner 8 µM) in the same way.
Response line: 0.136

Prompt line: Consider next the molecule CCNC(=O)c1noc(-c2cc(C(C)C)c(O)cc2O)c1-c1ccc(CN2CCOCC2)cc1 [Luminespib] + O=C(CCCCCCC(=O)Nc1ccccc1)NO [Vorinostat] (partner 1 µM) in the same way.
Response line: 0.101

Each recorded value in this set is attributed to the supplement of paper PMC10307832.
